# IC50 per record follows
assay: Inhibition of HCV genotype 1b NS5B delta21 polymerase; set-up: species or system Hepatitis C virus subtype 1b
Measurement name: IC50 (µM)

record_smiles=CC(C)N(c1ccc(Oc2ccccc2)cc1C(=O)O)C(=O)[C@H]1CC[C@H](C)CC1 measurement_name=IC50 recorded_number=0.67
record_smiles=CC(C)N(C(=O)c1ccc(Br)cc1F)c1cc(Oc2ccccc2)ccc1C(=O)O measurement_name=IC50 recorded_number=1.4
record_smiles=Cc1cccc(Oc2ccc(C(=O)O)c(NS(=O)(=O)c3ccc(Br)s3)c2)c1 measurement_name=IC50 recorded_number=1.1
record_smiles=Cc1ccccc1Oc1ccc(C(=O)O)c(NS(=O)(=O)c2ccc(Br)s2)c1 measurement_name=IC50 recorded_number=1.5
record_smiles=Cc1ccc(S(=O)(=O)Nc2ccc(Oc3cccc(C)c3)cc2C(=O)O)cc1 measurement_name=IC50 recorded_number=0.47
record_smiles=Cc1ccc(S(=O)(=O)Nc2ccc(Oc3ccccc3C(F)(F)F)cc2C(=O)O)cc1 measurement_name=IC50 recorded_number=0.27
record_smiles=CC(C)N(c1cc(Oc2ccccc2)ccc1C(=O)O)C(=O)[C@H]1CC[C@H](C(F)(F)F)CC1 measurement_name=IC50 recorded_number=1.3
record_smiles=CC(C)N(c1ccc(Oc2ccccc2C2CC2)cc1C(=O)O)C(=O)[C@H]1CC[C@H](C)CC1 measurement_name=IC50 recorded_number=0.33
record_smiles=CC(=O)Nc1ccc(Oc2ccc(NS(=O)(=O)c3ccc(C)cc3)c(C(=O)O)c2)cc1 measurement_name=IC50 recorded_number=0.29
record_smiles=CC(C)N(C(=O)c1ccc(Br)cc1F)c1ccc(Oc2ccccc2)cc1C(=O)O measurement_name=IC50 recorded_number=1.64
record_smiles=Cc1ccc(S(=O)(=O)Nc2ccc(Oc3ccccc3C)cc2C(=O)O)cc1 measurement_name=IC50 recorded_number=0.53
record_smiles=Cc1ccc(Oc2ccc(NS(=O)(=O)c3ccc(C)cc3)c(C(=O)O)c2)cc1 measurement_name=IC50 recorded_number=0.78
record_smiles=CC(C)N(c1ccc(Oc2ccccc2C(C)(F)F)cc1C(=O)O)C(=O)[C@H]1CC[C@H](C)CC1 measurement_name=IC50 recorded_number=0.3
record_smiles=O=C(O)c1ccc(Oc2ccccc2)cc1NS(=O)(=O)c1ccc(Br)cc1F measurement_name=IC50 recorded_number=0.31
record_smiles=CC(C)N(c1ccc(Oc2ccncc2C(F)(F)F)cc1C(=O)O)C(=O)[C@H]1CC[C@H](C)CC1 measurement_name=IC50 recorded_number=0.19
record_smiles=CC(C)N(c1cc(Oc2ccccc2)ccc1C(=O)O)C(=O)[C@H]1CC[C@H](C)CC1 measurement_name=IC50 recorded_number=0.74
record_smiles=CC(C)N(c1ccc(Oc2ccccc2OC(F)(F)F)cc1C(=O)O)C(=O)[C@H]1CC[C@H](C)CC1 measurement_name=IC50 recorded_number=0.74
record_smiles=CC(C)N(c1ccc(OC2CCCC2)cc1C(=O)O)C(=O)[C@H]1CC[C@H](C)CC1 measurement_name=IC50 recorded_number=0.46
record_smiles=Cc1ccc(S(=O)(=O)Nc2ccc(Oc3ccccc3OC(F)(F)F)cc2C(=O)O)cc1 measurement_name=IC50 recorded_number=0.37
record_smiles=Cc1ccc(S(=O)(=O)Nc2ccc(OC3CCCC3)cc2C(=O)O)cc1 measurement_name=IC50 recorded_number=0.21
record_smiles=CC[C@H]1CC[C@H](C(=O)N(c2ccc(Oc3ccccc3)cc2C(=O)O)C(C)C)CC1 measurement_name=IC50 recorded_number=1.3
record_smiles=O=C(O)c1cc(Oc2ccccc2)ccc1NS(=O)(=O)c1ccc(Br)cc1F measurement_name=IC50 recorded_number=0.34
